For each of the compounds below, state its pEC50.
# target_desc: human FXR (Homo sapiens, UniProt Q96RI1)
# Sequence (Q96RI1 262-486 limits assumed): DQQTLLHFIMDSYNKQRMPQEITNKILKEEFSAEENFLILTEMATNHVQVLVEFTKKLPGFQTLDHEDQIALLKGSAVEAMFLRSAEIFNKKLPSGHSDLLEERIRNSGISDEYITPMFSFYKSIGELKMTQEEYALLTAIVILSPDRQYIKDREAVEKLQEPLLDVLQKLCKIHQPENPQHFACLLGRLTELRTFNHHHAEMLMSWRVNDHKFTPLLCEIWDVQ
# experiment: transient human FXR/Gal4-luciferase reporter assay
# test_context: Gal4-hFXR LBD fusion, luciferase reporter in HEK293 cells; response relative to 8 μM GW-4064
Numbers only, as −log10 of the molar value.

Examples with answers:
[
  {
    "compound": "COc1cc(-c2cccc(N(CC34CCC(c5nnc(C)s5)(CC3)CC4)C(=O)C3CCOCC3)c2)ccn1 [Example 81]",
    "target_desc": "human FXR (Homo sapiens, UniProt Q96RI1)",
    "value_measured": 5.60
  },
  {
    "compound": "CCCc1ncc(-c2cccc(N(CC34CCC(c5nc(C6CC6)no5)(CC3)CC4)C(=O)C3CCOCC3)c2)o1 [Example 29]",
    "target_desc": "human FXR (Homo sapiens, UniProt Q96RI1)",
    "value_measured": 7.28
  }
]

Quick request: pEC50 for each listed item, please.
1. CCOc1cc(-c2cccc(N(CC34CCC(c5nc(C6CC6)no5)(CC3)CC4)C(=O)C3CCC(F)(F)CC3)c2)ccn1 [Example 79]
2. Cn1nc(-c2cccc(N(CC34CCC(c5nc(C6CC6)no5)(CC3)CC4)C(=O)C3CCOCC3)c2)cc1C1CC1 [Example 50]
3. Cn1cc(-c2cccc(N(CC34CCC(c5nc(C6CC6)no5)(CC3)CC4)C(=O)C3CCCOC3)c2)nc1C1CC1 (racemic) [Example 68]
4. CCOc1ncc(-c2cccc(N(CC34CCC(c5nc(C)no5)(CC3)CC4)C(=O)C3CCCCC3)c2)o1 [Example 10]
5. CCOc1ncc(-c2cccc(N(CC34CCC(c5noc(C(C)(C)F)n5)(CC3)CC4)C(=O)c3ccc(OC)cc3)c2)cn1 [Example 143]

Reply |
[6.39, 6.48, 5.39, 7.15, 6.69]

Working through the 2 compounds below one at a time, give pEC50 for each.
1. CCOc1cc(-c2cccc(N(CC34CCC(c5nc(C6CC6)no5)(CC3)CC4)C(=O)C3CCCCC3)c2)ccn1 [Example 78]
2. Cc1noc(C23CCC(CN(C(=O)C4CCCCC4)c4cccc(-c5cnc(C6CCOCC6)o5)c4)(CC2)CC3)n1 [Example 33]

Reply |
6.74
6.02

Report pEC50 for every entry below.
1. O=C(C1CCCOC1)N(CC12CCC(c3nc(C4CC4)no3)(CC1)CC2)c1cccc(-c2nc3cc(F)ccc3o2)c1 (racemic) [Example 92]
2. COc1cccc(-c2cccc(N(C(=O)C3CCCCC3)C(C)C34CCC(c5nc(C)no5)(CC3)CC4)c2)c1 (single isomer, unassigned) [Example 94]
3. Cn1nc(C2CC2)cc1C12CCC(CN(C(=O)C3CCC(F)(F)CC3)c3cccc(-c4cc(C5CC5)on4)c3)(CC1)CC2 [Example 163]
4. COc1cc(-c2cccc(N(CC34CCC(c5nnc(C)s5)(CC3)CC4)C(=O)C3CCC(F)(F)CC3)c2)ccn1 [Example 82]
5. Cc1noc(-c2cccc(N(CC34CCC(c5nc(C)no5)(CC3)CC4)C(=O)C3CCCCC3)c2)n1 [Example 1]

Reply |
[6.23, 5.41, 6.89, 5.32, 6.13]

###

Please go through the items and note down their EC50.
# target_desc: human FXR (Homo sapiens, UniProt Q96RI1)
# experiment: transient human FXR/Gal4-luciferase reporter assay
# test_context: Gal4-hFXR LBD fusion, luciferase reporter in HEK293 cells; response relative to 8 μM GW-4064
Answers are plain numbers, in nM.

As a guide, the following entries are already answered.
[
  {
    "molecule": "O=C(C1CCOCC1)N(CC12CCC(c3nc(C4CC4)no3)(CC1)CC2)c1cccc(-c2nnc(C3CC3)o2)c1 [Example 54]",
    "EC50 [nM]": 373
  },
  {
    "molecule": "CC(C)(C)c1nc(C23CCC(CN(C(=O)C4CCS(=O)(=O)CC4)c4cccc(-c5nc(C6CC6)no5)c4)(CC2)CC3)no1 [Example 117]",
    "EC50 [nM]": 729
  }
]

Please turn your attention to the following entry.
Measured EC50 (human FXR (Homo sapiens, UniProt Q96RI1)), entry Cn1nc(C2CC2)cc1C12CCC(CN(C(=O)C3CCOCC3)c3cccc(-c4ccc(S(C)(=O)=O)cc4)c3)(CC1)CC2 [Example 134] : 511
